Give TGI for every item shown.
- Tested on: IGROV1 ovarian
- ASSAY_PROCEDURE: NCI tumour cell line growth inhibition, 48 h
Answers are plain numbers, in µM.

COMPOUND | VAL
CN(C)c1ccc(/C=c2/c3ccccc3n3c2cc(NC(=O)NCCC[N+](C)(C)C)[n+]3C)cc1 | 46.9

Could you now look at the following compound, please?
In: Suppose we examine the compound CCOC(=O)C(NC(=O)c1cccc(Cl)c1)(N1CCN(c2cc3c(cc2F)c(=O)c(C(=O)O)cn3C2CC2)CC1)C(F)(F)F (stereo not drawn) ; what TGI value has been reported?
Out: 41.5

---

- Test system: K-562 leukemia
- ASSAY_PROCEDURE: NCI tumour cell line growth inhibition, 48 h
Where a SMILES comes first, the peptide text is derived from it. [ ]: non-standard residue; d: D form. The star is where a group is joined. Phe(4-NO2) = N[CH](Cc1ccc([N+](=O)[O-])cc1)C(=O)O; Boc = CC(C)(C)OC(=O)*
Give TGI for every item shown.

Consider the reported TGI for these compounds:
COMPOUND | TGI
CCCCc1ccc(Nc2nc(Cl)c3ncn(C4CC(Oc5ccc(C)cc5)C(COc5ccc(C)cc5)O4)c3n2)cc1 (stereo not given) | > 100 µM
Oc1ccc(-c2nc3cc(F)ccc3s2)cc1 | 72.3 µM

Please look at the items below and tell me TGI for each one, in order.
1. O=C(CSc1ncc(-c2ccccc2)n1-c1ccccc1)Nc1ccc(-c2nc3ccccc3s2)cc1
2. CCc1ccc2c(c1)C(=O)c1c-2n(CCCN)c(=O)c2cc([N+](=O)[O-])ccc12
3. COc1cc2c(cc1O)C1CC(CC3CCCCN31)OC(=O)/C=C\c1ccc(O)c-2c1 (stereo not given)

Out:
> 100 µM
0.756 µM
> 100 µM

Please look at the items below and tell me TGI for each one, in order.
1. Nc1ccc(C(=O)Nc2ccccc2N)cc1
2. C#CC(O)/C=C/C(O)CCCC(O)CC#CC(O)C#CC(O)CCCC(O)/C=C/CCCCCC(=O)CCCCCCCCCCCCCC(O)C(O)C#CC(=O)O (stereo not given)
3. Cc1ccc(N=NC(C2=NC(=O)CS2)c2nc3ccccc3[nH]2)cc1 (stereo not given)
4. Cc1cc2cc3ccccc3cc2c(=O)[nH]1

Out:
> 100 µM
> 50 µM
> 100 µM
> 10 µM

Please look at the items below and tell me TGI for each one, in order.
1. Cn1cnc2c1c(=O)n(CCNCCO)c(=O)n2C
2. Nc1nnc2oc3ccc4ccccc4c3cc1-2
3. Cn1ccoc1=Nc1ccc(Cl)c(Cl)c1
4. CC(C)[C@H](C(=O)O[C@@H]1/C=C/C(=O)O[C@@H](C)CCC/C=C/[C@@H]2C[C@H](O)C[C@H]21)N(C)C
5. Cn1cc(C2=C(c3c(S(C)=O)n(C)c4ccccc34)C(=O)NC2=O)c2ccccc21 (stereo not given)
6. COc1ccc2c(c1)N(CCO)C1=C(C(=O)OC1)C2c1ccc(OC)c(OC)c1 (stereo not given)
7. COC(=O)N/N=C(/c1nc2ccc([N+](=O)[O-])cc2[nH]c1=O)C(O)c1ccc(OC)c(OC)c1 (stereo not given)
8. Cc1ccc(/C=C2\NC(=S)N(CN3CCCCC3)C2=O)cc1

Out:
1. > 100 µM
2. > 100 µM
3. > 10 µM
4. 58.1 µM
5. > 25 µM
6. > 100 µM
7. > 100 µM
8. > 100 µM

Please look at the items below and tell me TGI for each one, in order.
1. CCOC(=O)Nc1cc2c(c(N)n1)N=C(c1ccc3ccccc3c1)CN2
2. Fc1ccc(C2C3CCOc4c(ccc5ccccc45)C3=NN2c2ccccc2)cc1 (stereo not given)
3. CC1COCCN1CC#CCOC(=O)c1cc2ccccc2oc1=O (stereo not given)
4. C[N+](C)(C)CCOP(=O)([O-])OCCNC(=O)c1ccc2ccccc2c1
5. Clc1ccc(-c2nc3ccc4ccccc4c3c3c2CCCC3)cc1
6. CCc1ccc(/C=C/C(=O)C2CN(CC)CCC2(O)/C=C/c2ccc(CC)cc2)cc1 (stereo not given)

Out:
10.3 µM
> 100 µM
> 100 µM
> 100 µM
> 100 µM
8.94 µM

Please look at the items below and tell me TGI for each one, in order.
1. COc1ccc2nc3cc(Cl)ccc3c(Nc3cc(C(C)C)c(O)cc3C)c2c1
2. c1ccc2c3nnc(c2c1)SCCCSc1nnc(c2ccccc12)SCCCS3

Out:
1. > 100 µM
2. > 100 µM

Please look at the items below and tell me TGI for each one, in order.
1. COC(=O)C1(O)c2ccccc2N=C2C1CCN2C (stereo not given)
2. NNc1ncc2c(n1)-c1ccccc1OC2
3. CCCCCCCN(CCCCCCC)CC(O)c1cc2ccccc2c2cc(Br)ccc12 (stereo not given)
4. N#CC1CCCCC1NC1(C#N)CCCCC1 (stereo not given)
5. COc1ccc2c(c1)CCc1c-2n(CCN2CCOCC2)c2ccc(OC)cc12
6. CCCCC(C(=O)CCC(=O)Nc1ccc(Cl)cc1)C(=O)C(C)C (stereo not given)

Out:
["> 100 µM", "> 100 µM", "> 100 µM", "> 100 µM", "54 µM", "> 100 µM"]

Please look at the items below and tell me TGI for each one, in order.
1. O=C(Nc1ncc([N+](=O)[O-])s1)c1ccccc1O
2. CC(C)COC(c1ccc2c(c1)OCO2)C(C)Br (stereo not given)
3. COc1cc(-c2nn(-c3cccc(NC(=O)CCN4CCN(C)CC4)c3)cc2-c2ccncc2)ccc1Cl
4. COC(=O)c1ccc(/C=C2\Oc3cc(O)ccc3C2=O)cc1
5. O=C(O)COc1ccc(C(=O)/C(SS/C(C(=O)c2ccc(OCC(=O)O)c(Cl)c2Cl)=C2\C=C(c3ccccc3Cl)SS2)=C2/C=C(c3ccccc3Cl)SS2)c(Cl)c1Cl

Out:
> 100 µM
> 100 µM
2.53 µM
> 100 µM
> 49 µM

Please look at the items below and tell me TGI for each one, in order.
1. O=C1/C(=C/c2ccccc2[N+](=O)[O-])COc2ccc(O)c(O)c21
2. COc1ccc(C(=C2C(=O)N(c3ccccc3)C(=O)C2=C(C)C)c2ccc(OC)cc2)cc1
3. COC(=O)CCC(NC(=O)OC(C)(C)C)C(=O)NC(Cc1ccc([N+](=O)[O-])cc1)C(=O)NC(CCC(=O)OC)C(=O)OC (stereo not given) (Boc-Glu(OMe)-[Phe(4-NO2)]-Glu(OMe)-OMe; configuration not given here)
4. Cc1cc(C#Cc2ccccc2)ccc1-n1c(/C=C/c2cc(O)ccc2O)nc2ccccc2c1=O

Out:
1. > 100 µM
2. > 100 µM
3. > 100 µM
4. 3.82 µM
